pIC50: −log10 of the molar value.
Compiled record: pIC50 values for Cyclin-dependent kinase 1 (Homo sapiens) across several sources.
metric.name: pIC50

Here's what some known entries look like.
>>> readout_number("CC(C)N1CNc2c(Nc3cccc(Cl)c3)nc(NCCO)nc21")
6.66
>>> readout_number("COc1ccc(CNc2nc(N3CCC(O)CC3)nc3c2NCN3C(C)C)cc1")
5.19
>>> readout_number("COc1cc(F)ccc1-c1cc(NC(=O)[C@H]2CCC[C@@H](NC(=O)C3(C#N)CC3)C2)ncc1F")
7.10
>>> readout_number("CC[C@H](CO)Nc1nc(Nc2cccc(Cl)c2)c2c(n1)N(C(C)C)CN2")
6.52
>>> readout_number("O=C(O)CCc1ccc2c(c1)-c1[nH]c3ccc([N+](=O)[O-])cc3c1CC(=O)N2")
7.60

(A) CC(C)C[C@H](CO)Nc1nc(Nc2cccc(Cl)c2)c2c(n1)N(C(C)C)CN2
(B) CC(C)[C@H](CO)Nc1nc(Nc2ccccc2)c2c(n1)N(C(C)C)CN2
Which has the higher pIC50, A or B ? API: response body contains the label of the selected item. B
(B: 6.62, A: 6.28)
